B1: Probable E3 ubiquitin-protein ligase MID2, residues 191 to 235; numbered along this chain, Q9UJV3 (parent)
chain: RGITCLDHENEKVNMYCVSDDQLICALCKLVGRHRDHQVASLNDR

- Variants of: B1
- method_description: abundance fitness (aPCA) (normalised: wild type 0, dead -1); higher = more abundant; growth selection in yeast, the domain comes from the species named
- protocol_conditions: Homo sapiens
property_measured: abundance fitness

Q. Tell me abundance fitness reported for D21M
A. -0.316

Q. Tell me abundance fitness reported for G2S
A. -0.069

Q. Tell me abundance fitness reported for I24K
A. -0.105

Q. Tell me abundance fitness reported for Q38L
A. -0.259

Q. Tell me abundance fitness reported for H34L
A. -1.13

Q. Tell me abundance fitness reported for V39P
A. -0.249
